- SUBJECT_OF_TEST: Serine/threonine-protein kinase Chk1 (Homo sapiens, UniProt O14757)
- Sequence (O14757 whole entry): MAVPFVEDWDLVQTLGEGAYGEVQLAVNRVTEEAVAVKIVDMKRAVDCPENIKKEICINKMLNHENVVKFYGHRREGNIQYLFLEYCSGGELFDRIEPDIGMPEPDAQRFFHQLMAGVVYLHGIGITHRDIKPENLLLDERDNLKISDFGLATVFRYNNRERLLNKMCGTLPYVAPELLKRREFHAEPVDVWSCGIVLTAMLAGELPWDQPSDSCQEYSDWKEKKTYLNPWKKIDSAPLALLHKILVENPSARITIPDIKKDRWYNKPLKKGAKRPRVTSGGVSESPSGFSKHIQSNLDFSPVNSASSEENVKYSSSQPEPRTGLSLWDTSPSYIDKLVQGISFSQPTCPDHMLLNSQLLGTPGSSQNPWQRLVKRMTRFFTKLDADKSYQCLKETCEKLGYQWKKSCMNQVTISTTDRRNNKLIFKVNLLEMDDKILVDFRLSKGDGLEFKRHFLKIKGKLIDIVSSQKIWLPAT
pIC50: −log10 of the molar value.
Measured pIC50 of individual entries
REPORTED_METRIC: pIC50

>  <MOLECULE>
CN(C)S(=O)(=O)c1ccc(Nc2cc(N[C@H]3CC[C@H](N)CC3)nc3ncnn23)cc1

>  <RELATIONAL_OPERATOR>
=

>  <MEASURED_NUMBER>
4.68

$$$$
>  <MOLECULE>
NS(=O)(=O)c1ccc(Nc2nc(OCC3CCCCC3)c3nc[nH]c3n2)cc1

>  <RELATIONAL_OPERATOR>
>

>  <MEASURED_NUMBER>
6.30

$$$$
